Data origin: ChEMBL document CHEMBL2062517

Kindly state pIC50 for each of the entries shown.
Test: Inhibition of X4-tropic HIV1 3B gp120-mediated entry into human MT2 cells assessed as Inhibition of p24 production incubated overnight followed by compound wash-out measured after 4 days post-infection by multi-cycle neutralization assay
Format: cell-based
Conditions: Human immunodeficiency virus 1, 3B, MT2, 96 h
Give bare numbers, as −log10 of the molar value.

Cc1nc(C(NC(=O)C(=O)Nc2ccc(Cl)cc2)C2CCCNC2)sc1CCO (mixture of isomers) :: 4.88
Cc1ccc(NC(=O)C(=O)NC(c2nc(C)c(CCO)s2)C2CCCCN2)c(F)c1 (mixture of isomers) :: 4.34

Now for a further compound.
Exam item: Bench note: what pIC50 did Cc1nc(C(NC(=O)C(=O)Nc2ccc(F)cc2F)C2CCCCN2)sc1CO (mixture of isomers) show?
Marked response: 3.96
